Test system: Fibroblast
procedure_text: Incucyte cell viability with human fibroblast; note: unitless GR value; below 1 slowed growth and below 0 cell loss
Type: toxicity, cell-based
condition_summary: 24 h, 10 µM, compound concentration 10 uM, replicate number 1
measured_quantity: Growth Rate
Could you respond with only the numeric value?

Solved cases (5 shown):
Give Growth Rate for OCC1OC(n2cnc3cc(Cl)c(Cl)cc32)C(O)C1O (centres undefined) 0.84

Complete the entry with Growth Rate for COc1ncc2cc(C(=O)Nc3cc(C(=O)NCc4cccc(Cl)c4)ccc3Cl)c(=O)[nH]c2n1 0.44

Given COc1ccc(-c2csc(NC(=O)[C@H]3CCCCN3S(=O)(=O)c3ccc(C)cc3)n2)cc1 , respond with its Growth Rate. 0.84

Item CC(C)C[C@H](NC(=O)c1cc2ccccc2s1)C(=O)N1CCN(C(=O)[C@H](CO)NS(=O)(=O)c2ccc(Cl)cc2Cl)CC1 : provide Growth Rate 0

In one line, give reported Growth Rate of the entry O=C(CCCN1CCC(O)(c2ccc(Cl)cc2)CC1)c1ccc(F)cc1 [HALOPERIDOL] . 0.65

---
Find the measured Growth Rate of CCO[C@@H](Cc1ccc(OCCc2ccc(OS(C)(=O)=O)cc2)cc1)C(=O)O [TESAGLITAZAR] and report it. 0.99

Input COCc1c(-c2cc3cc(C)cc(OC)c3s2)c2c(N)ncnn2c1CN[C@@H]1CCNC1=O , output reported Growth Rate. 0.46

For the compound N[C@@H]1CCCN(c2c(/C=C3\SC(=O)NC3=O)cccc2-c2ccccc2)C1 , give its reported Growth Rate. 1

Name the recorded Growth Rate of the compound listed here: CCN1C(=O)N(c2c(F)c(OC)cc(OC)c2F)Cc2cnc3[nH]c(CN4CCOCC4)cc3c21 [PEMIGATINIB] 0.19

---

Tested on: Fibroblast
procedure_text: Incucyte cell viability with human fibroblast; note: unitless GR value; below 1 slowed growth and below 0 cell loss
Assay type: toxicity, cell-based
condition_summary: 6 h, 10 µM, compound concentration 10 uM, replicate number 1
Recorded Growth Rate for the following molecules
Reply briefly: the number, and no unit.

Example cases with answers are listed next.
// Input: CC1(C)CC(CN2CCC(F)(CNC(=O)c3cc(Cl)cc(Cl)c3)CC2)CCO1 (centres undefined) . Output its Growth Rate only. -1

Find the measured Growth Rate of CN1CCN(C(=O)Cc2ccc(N/C(=C3\C(=O)Nc4cc(Cl)ccc43)c3ccccc3)cc2)CC1 and report it. 0.12

Give the reported value of Growth Rate for this record: CCNc1ccc(-c2nn(-c3ccccc3C)c3c2C(C)Cc2nc(NC(=O)OC)sc2-3)cn1.O=C(O)C(F)(F)F (centres undefined) -0.81

Let me know recorded Growth Rate for CC#CC(=O)N1CCN(c2nc(-c3ccc(Oc4ccccc4)cc3)c(C(N)=O)s2)CC1 , thanks. 0.87

New cases:
Supply Growth Rate value. Item: O=C(NCc1ccc(F)cc1)C1CCN(S(=O)(=O)c2cc(Cl)cc(Cl)c2)CC1 0.84

Determine its reported Growth Rate: Cc1cc(Cn2c(N3CC4(CNC4)C3)nc3cc(Cl)cc(N4CCN(C)CC4)c32)cc(C)c1F -0.09

State, in one line, measured Growth Rate of CCc1c(-c2ccc3[nH]ncc3c2)cnc(N)c1-c1ccc(O)cc1 0.91

Give the value of Growth Rate reported for the following: C[C@@H]1CC(=O)N(C2CC2)N=C1c1ccc(NC(=O)N2Cc3ccncc3C2)cc1 0.8

Dear colleague, please send me the reported Growth Rate for COc1ccc(CSc2nnc(-c3ccc4ncsc4c3)o2)cc1C(F)(F)F when you can. 0.92
